Numbers sourced from patent US7605156B2.

- TEST_TARGET: cPLA2 (Homo sapiens)
- Sequence (P47712 whole entry, species assumed): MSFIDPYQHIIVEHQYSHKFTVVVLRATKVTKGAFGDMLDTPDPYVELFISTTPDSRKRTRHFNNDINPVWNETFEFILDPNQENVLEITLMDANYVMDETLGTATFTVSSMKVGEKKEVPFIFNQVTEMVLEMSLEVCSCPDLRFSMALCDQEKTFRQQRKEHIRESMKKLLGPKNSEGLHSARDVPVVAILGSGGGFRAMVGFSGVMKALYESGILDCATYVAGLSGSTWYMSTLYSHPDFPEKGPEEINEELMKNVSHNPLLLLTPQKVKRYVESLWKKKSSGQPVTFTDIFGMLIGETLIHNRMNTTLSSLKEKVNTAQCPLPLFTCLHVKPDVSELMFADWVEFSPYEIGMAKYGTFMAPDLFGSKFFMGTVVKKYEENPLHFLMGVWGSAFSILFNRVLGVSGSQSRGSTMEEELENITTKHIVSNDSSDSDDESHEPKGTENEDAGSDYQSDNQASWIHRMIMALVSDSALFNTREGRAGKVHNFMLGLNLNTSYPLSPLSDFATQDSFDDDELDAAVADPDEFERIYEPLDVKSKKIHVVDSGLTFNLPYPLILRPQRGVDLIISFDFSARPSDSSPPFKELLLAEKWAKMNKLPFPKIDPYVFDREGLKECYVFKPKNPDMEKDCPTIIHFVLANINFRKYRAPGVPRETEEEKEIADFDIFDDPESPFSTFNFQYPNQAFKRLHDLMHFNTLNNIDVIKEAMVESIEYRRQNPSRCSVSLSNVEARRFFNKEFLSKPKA
MEASUREMENT_LABEL: IC50 (nM)

{"columns": ["COMPOUND", "REPORTED_RESULT"],
 "data": [
  ["O=C(O)c1ccc(CCCc2c(CCNS(=O)(=O)c3ccsc3)n(C(c3ccccc3)c3ccccc3)c3ccc(Cl)cc23)cc1", 230],
  ["O=C(O)c1ccc(CCCc2c(CCNS(=O)(=O)c3ccc(Cl)cc3Cl)n(C(c3ccccc3)c3ccccc3)c3ccc(Cl)cc23)cc1", 320],
  ["CC(C)Oc1ccccc1S(=O)(=O)NCCc1c(CCCc2ccc(C(=O)O)cc2)c2cc(Cl)ccc2n1C(c1ccccc1)c1ccccc1", 100],
  ["O=C(O)c1ccc(OCCc2c(CCNS(=O)(=O)Cc3cccc(C(F)(F)F)c3)n(C(c3ccccc3)c3ccccc3)c3ccc(Cl)cc23)cc1", 580],
  ["COc1cccc(OC)c1S(=O)(=O)NCCc1c(CCCc2ccc(C(=O)O)cc2)c2cc(Cl)ccc2n1C(c1ccccc1)c1ccccc1", 240],
  ["O=C(O)c1ccc(S(=O)(=O)CCc2c(CCNS(=O)(=O)c3ccccc3Cl)n(C(c3ccccc3)c3ccccc3)c3ccc(Cl)cc23)cc1", 600],
  ["O=C(O)c1ccc(OCCc2c(CCNS(=O)(=O)c3ccc(-c4ccc(F)cc4)cc3)n(C(c3ccccc3)c3ccccc3)c3ccc(Cl)cc23)cc1", 2600],
  ["CC1CCCN(CCS(=O)(=O)NCCc2c(CCOc3ccc(C(=O)O)cc3)c3cc(Cl)ccc3n2C(c2ccccc2)c2ccccc2)C1 (stereo not shown)", 1200],
  ["O=C(O)c1ccc(CCCc2c(CCNS(=O)(=O)c3ccc(C(F)(F)F)cc3)n(C(c3ccccc3)c3ccccc3)c3ccc(Cl)cc23)cc1", 400],
  ["COc1ccc(S(=O)(=O)NCCc2c(CCOc3ccc(C(=O)O)cc3)c3cc(Cl)ccc3n2C(c2ccccc2)c2ccccc2)c([N+](=O)[O-])c1", 400],
  ["Nc1ccccc1CS(=O)(=O)NCCc1c(CCOc2ccc(C(=O)O)cc2)c2cc(Cl)ccc2n1C(c1ccccc1)c1ccccc1", 980],
  ["Cc1nc(-c2ccc(S(=O)(=O)NCCc3c(CCCc4ccc(C(=O)O)cc4)c4cc(Cl)ccc4n3C(c3ccccc3)c3ccccc3)s2)cs1", 400],
  ["O=C(O)c1ccc(OCCc2c(CCNS(=O)(=O)c3ccsc3)n(C(c3ccccc3)c3ccccc3)c3ccc(Cl)cc23)cc1", 650]
]}
